- protocolDescription: Mouse PK study (IV and PO)
- Type: in vivo
- conditionContext: male, C57BL/6, mouse, plasma, po, 10 mg/kg, male C57BL/6 mice, PO group 10 mg/kg
Cmax of 5000 ng/mL or higher: Criterion met. Under 5000 ng/mL: Criterion not met.

Check this molecule for Cmax at or above 5000 ng/mL: CCc1nc2ccc(-c3ccc(N4CCN(C(=O)N5CC[C@@H](O)C5)CC4)nc3)cn2c1N(C)c1nc(-c2ccc(F)cc2)c(C#N)s1 [Compound 92]
Criterion not met

Check this molecule for Cmax at or above 5000 ng/mL: CCc1nc2ccc(-c3ccc(N4CCC(C(=O)N5CCCC5)CC4)nc3)cn2c1N(C)c1nc(-c2ccc(F)cc2)c(C#N)s1 [Compound 113]
Criterion met

Check this molecule for Cmax at or above 5000 ng/mL: CCc1nc2ccc(-c3ccc(N4CC(C(=O)N5CCC5)C4)nc3)cn2c1N(C)c1nc(-c2ccc(F)cc2)c(C#N)s1 [Compound 124]
Criterion not met

Check this molecule for Cmax at or above 5000 ng/mL: CCc1nc2ccc(-c3cnc(C(=O)N4CCCC4)nc3)cn2c1N(C)c1nc(-c2ccc(F)cc2)c(C#N)s1 [Compound 47]
Criterion not met

Check this molecule for Cmax at or above 5000 ng/mL: CCc1nc2ccc(-c3cnc(N4CCN(C(=O)N5CC[C@@H](O)C5)CC4)nc3)cn2c1N(C)c1nc(-c2ccc(F)cc2)c(C#N)s1 [Compound 43]
Criterion met

Check this molecule for Cmax at or above 5000 ng/mL: CCc1nc2ccc(-c3cnc(N4CC(NC5(CO)CC5)C4)nc3)cn2c1N(C)c1nc(-c2ccc(F)cc2)c(C#N)s1 [Compound 30]
Criterion not met
